B1: HHH_rd2_0155 (parent)
chain: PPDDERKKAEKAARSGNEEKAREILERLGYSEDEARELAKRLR

Variants of: B1
Test: folding stability dG (cDNA display proteolysis); higher = more stable
Settings: PBS, room temperature
Quick rule: folding stability dG of at least 2 kcal/mol means MET, below that means NOT MET.

INSERT INTO assay_data (mutantcode, grouplabel) VALUES
  ('L25P', 'NOT MET'),
  ('A39F', 'NOT MET'),
  ('L25D', 'NOT MET'),
  ('L25S', 'NOT MET'),
  ('D3A', 'NOT MET'),
  ('A9N', 'NOT MET'),
  ('S31T', 'MET'),
  ('E23D', 'NOT MET'),
  ('E18N', 'NOT MET'),
  ('R36E', 'NOT MET'),
  ('E34H', 'NOT MET'),
  ('D33L', 'NOT MET'),
  ('P1F', 'MET'),
  ('P1Y', 'MET'),
  ('R41T', 'NOT MET'),
  ('K20E', 'MET'),
  ('S31W', 'NOT MET'),
  ('K40E', 'NOT MET'),
  ('D4W', 'MET'),
  ('D33V', 'NOT MET'),
  ('L25W', 'NOT MET'),
  ('I24A', 'NOT MET'),
  ('R36Y', 'NOT MET'),
  ('L25N', 'NOT MET'),
  ('E10D', 'NOT MET'),
  ('A35T', 'NOT MET'),
  ('E32K', 'MET'),
  ('A39S', 'NOT MET'),
  ('L25G', 'NOT MET'),
  ('A13I', 'NOT MET'),
  ('A35Q', 'NOT MET'),
  ('E23I', 'NOT MET'),
  ('L28Q', 'NOT MET'),
  ('A35H', 'NOT MET'),
  ('E5Y', 'NOT MET'),
  ('R6W', 'MET'),
  ('L28K', 'NOT MET'),
  ('R14K', 'MET'),
  ('A12R', 'NOT MET'),
  ('A12Y', 'MET'),
  ('S15W', 'NOT MET'),
  ('A13Y', 'NOT MET'),
  ('D4C', 'MET'),
  ('L42F', 'MET'),
  ('L38F', 'NOT MET'),
  ('E18V', 'MET'),
  ('E37A', 'MET'),
  ('R43Y', 'MET'),
  ('I24F', 'NOT MET'),
  ('L38G', 'NOT MET'),
  ('R6E', 'NOT MET'),
  ('P1E', 'MET'),
  ('A9M', 'NOT MET'),
  ('G29L', 'NOT MET'),
  ('A35N', 'NOT MET'),
  ('R41M', 'NOT MET'),
  ('R27P', 'NOT MET'),
  ('R36I', 'NOT MET'),
  ('E10S', 'NOT MET'),
  ('R6V', 'MET'),
  ('R41N', 'NOT MET'),
  ('A39T', 'NOT MET'),
  ('K40M', 'MET'),
  ('E26F', 'NOT MET'),
  ('D3E', 'MET'),
  ('D3Q', 'NOT MET'),
  ('R36L', 'NOT MET'),
  ('R43M', 'MET'),
  ('K8V', 'NOT MET'),
  ('L42Q', 'NOT MET'),
  ('A35G', 'NOT MET'),
  ('S15C', 'MET'),
  ('E34K', 'NOT MET'),
  ('D33Q', 'MET'),
  ('L28F', 'NOT MET'),
  ('K7A', 'MET'),
  ('A39D', 'NOT MET'),
  ('K8G', 'NOT MET'),
  ('K11Q', 'MET'),
  ('A21Y', 'NOT MET'),
  ('I24Y', 'NOT MET'),
  ('R6H', 'MET'),
  ('A9S', 'NOT MET'),
  ('A39M', 'NOT MET'),
  ('A39H', 'NOT MET'),
  ('E19M', 'MET');

# credit: the MegaScale stability set (Tsuboyama et al. 2023)
